Source: patent US6251885A

- Test system: v-src^ts -NRK cell
- measurementNotes: Inhibition of v-src^ts-NRK cell cycle (progress of S phase), flow cytometry; note: key: +: weakly inhibits the progress of S; + +: inhibits the progress of S phase; + + +: strongly inhibits the progress of S phase
- Format: cell-based, rat
- measurementParameters: 0.03 μg/ml; downshift 39° C. to 32° C.; 18 hours
readoutType: Inhibition effect on v-src^ts -NRK cell cycle

I'm curious: which Inhibition effect on v-src^ts -NRK cell cycle was measured for COC1C=CC=CC=CCC(OC(=O)C2(NC(=O)C3=CCCCC3)CC2)C(C)C(O)C(C)=CCCC2=CC(=O)C=C(NC(=O)C1)C2=O (stereo not shown) tested on v-src^ts -NRK cell?
+ +

And COC1C=CC=CC=CCC(OC(=O)C2(NC(=O)C3CCCCC3)CC2)C(C)C(O)C(C)=CCCC2=CC(=O)C=C(NC(=O)C1)C2=O (stereo not shown) ?
+ +

And COC1C=CC=CC=CCC(OC(=O)C2(NC(=O)C3CCCCC3)CC2)C(C)C(O)C(C)=CCCc2cc(O)cc(c2O)NC(=O)C1 (stereo not shown) ?
+

And COC1C=CC=CC=CCC(OC(=O)C2(NC(=O)C3=CCCCC3)CC2)C(C)C(O)C(C)=CCCc2cc(O)cc(c2O)NC(=O)C1 (stereo not shown) ?
+

====

- Test system: v-src^ts -NRK cell
- measurementNotes: Activity to revert v-src^ts-NRK cell to normal morphology; note: key: +: weakly induce normal morphology; + +: induce normal morphology; + + +: highly induce normal morphology
- Assay type: cell-based, rat
- measurementParameters: 0.1 μg/ml; 32° C.; 18 hours
readoutType: reversion activity to induce v-src^ts -NRK cell to normal morphology

What value of measured reversion activity to induce v-src^ts -NRK cell to normal morphology is listed for COC1C=CC=CC=CCC(OC(=O)C2(NC(=O)C3=CCCCC3)CC2)C(C)C(O)C(C)=CCCC2=CC(=O)C=C(NC(=O)C1)C2=O (stereo not shown) [Cytotrienin III, cytotrienin III] ?
+ +

And COC1C=CC=CC=CCC(OC(=O)C2(NC(=O)C3CCCCC3)CC2)C(C)C(O)C(C)=CCCc2cc(O)cc(c2O)NC(=O)C1 (stereo not shown) [Cytotrienin II, cytotrienin II] ?
+

And COC1C=CC=CC=CCC(OC(=O)C2(NC(=O)C3CCCCC3)CC2)C(C)C(O)C(C)=CCCC2=CC(=O)C=C(NC(=O)C1)C2=O (stereo not shown) [Cytotrienin IV, cytotrienin IV] ?
+ +

And COC1C=CC=CC=CCC(OC(=O)C2(NC(=O)C3=CCCCC3)CC2)C(C)C(O)C(C)=CCCc2cc(O)cc(c2O)NC(=O)C1 (stereo not shown) [Cytotrienin I, cytotrienin I] ?
+
